target: mouse ACVR2A (mouse, UniProt P27038 20-135, limits assumed); assay: ELISA; note: test concentration or dose not given here
Sequence (P27038 20-135 limits assumed): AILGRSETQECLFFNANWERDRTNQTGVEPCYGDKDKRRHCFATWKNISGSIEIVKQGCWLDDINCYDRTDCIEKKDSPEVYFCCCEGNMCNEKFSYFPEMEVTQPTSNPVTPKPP
Give optical density for every item shown.
Lab book: enter the figure in OD, no units written.

Find the measured optical density of 365_E02 (antibody, V domains shown, VH/VL only) VH: EVQLLESGGGLVQPGGSLRLSCAASGFTFSSYSMNWVRQAPGKGLEWVANINYNGGYTSYADSVKGRFTISRDNSKNTLYLQMNSLRAEDTAVYYCAKSATWHDTHLDYWGQGTLVTVSS VL: DIQMTQSPSSLSASVGDRVTITCRASQSIISYLNWYQQKPGKAPKLLIYAATSRASGVPSRFSGSGSGTDFTLTISSLQPEDFATYYCQQSYENPLTFGGGTKVEIK and report it.
2.61

Identify the reported optical density for the following entry. 376_E08 (antibody, V domains shown, VH/VL only) VH: EVQLLESGGGLVQPGGSLRLSCAASGFTFSDYGMNWVRQAPGKGLEWVAGINYNGGYTSYADSVKGRFTISRDNSKNTLYLQMNSLRAEDTAVYYCARSANWHDTALDYWGQGTLVTVSS VL: DIQMTQSPSSLSASVGDRVTITCRASQSIVSYVNWYQQKPGKAPKLVIYAATSRASGVPSRFSGSGSGTDFTLTISSLQPEDFATYYCQQSYDSPLTFGGGTKVEIK
3.64

Supply optical density value. Item: 368_F12 (antibody, V domains shown, VH/VL only) VH: EVQLLESGGGLVQPGGSLRLSCAASGFTFDDYSMNWVRQAPGKGLEWVASINYNSGYKSYADSVKGRFTISRDNSKNTLYLQMNSLRAEDTAVYYCARSATWHDTHLDYWGQGTLVTVSS VL: DIQMTQSPSSLSASVGDRVTITCRASQSIVTYLNWYQQKPGKAPKLVIYAATSLASGVPSRFSGSGSGTDFTLTISSLQPEDFATYYCQQSYDLPLTFGGGTKVEIK
1.7
